assay: activity coefficient (dimensionless); of the first substance listed, at infinite dilution; xn = mol fraction of the nth substance listed; details: 358.15 K; 101 kPa; Liquid; Chromatography; x1 = 0
Binary classification by activity coefficient, with 3 as an inclusive lower bound for Satisfied; all other cases are Not satisfied.

>>> assigned_category("C#CCCCCCC [1-octyne] + CCCC[n+]1cccc(C)c1.O=S(=O)([O-])C(F)(F)F")
"Satisfied"
>>> assigned_category("C1CCCCCC1 [cycloheptane] + CCCC[n+]1cccc(C)c1.O=S(=O)([O-])C(F)(F)F")
"Satisfied"

Exercise: Does activity coefficient meet or surpass 3 for C=CCCCC [hex-1-ene] + CCCC[n+]1cccc(C)c1.O=S(=O)([O-])C(F)(F)F ?
Key: Satisfied

Exercise: Does activity coefficient meet or surpass 3 for C#CCCCC [1-hexyne] + CCCC[n+]1cccc(C)c1.O=S(=O)([O-])C(F)(F)F ?
Key: Satisfied

Exercise: Does activity coefficient meet or surpass 3 for CO [methanol] + CCCC[n+]1cccc(C)c1.O=S(=O)([O-])C(F)(F)F ?
Key: Not satisfied

Exercise: Does activity coefficient meet or surpass 3 for CCCC(C)=O [pentan-2-one] + CCCC[n+]1cccc(C)c1.O=S(=O)([O-])C(F)(F)F ?
Key: Not satisfied

Exercise: Does activity coefficient meet or surpass 3 for CCOCC [diethyl ether] + CCCC[n+]1cccc(C)c1.O=S(=O)([O-])C(F)(F)F ?
Key: Satisfied

Exercise: Does activity coefficient meet or surpass 3 for C=CCCCCC [1-heptene] + CCCC[n+]1cccc(C)c1.O=S(=O)([O-])C(F)(F)F ?
Key: Satisfied

Taken from the NIST ThermoML archive (doi:10.1021/je1000582).
